assay: Antioxidant activity assessed as hydroxyl radical scavenging rate at 0.2 g/L relative to control
Type: functional
reported_property: Activity
Number first, unit second: that is the form wanted.

Recorded results for 2 molecules are shown here.
line_notation=O=C(Oc1ccc2c(c1)OCO2)c1ccccc1Cl reported_property=Activity observed=14.2%
line_notation=O=C(Oc1ccc2c(c1)OCO2)c1cccc(Cl)c1Cl reported_property=Activity observed=11.1%

Note to self: Activity recorded for O=c1oc2ccc3c(c2c2ccccc12)OCO3 was 16.1%

Kindly note the recorded Activity for O=c1oc2ccc3c(c2c2c(Cl)cccc12)OCO3 , which is 16.1%

Record summary for O=c1oc2ccc3c(c2c2ccc(Cl)cc12)OCO3 : reported Activity = 17%

response.value for O=C(Oc1ccc2c(c1)OCO2)c1ccc(Cl)cc1Cl (field: Activity) = 12.8%

Record summary for O=C(Oc1ccc2c(c1)OCO2)c1c(Cl)cccc1Cl : reported Activity = 14%

Documented Activity of O=c1oc2ccc3c(c2c2cc(Cl)ccc12)OCO3 : 17.9%

Just so you know, measured Activity for O=c1oc2ccc3c(c2c2cccc(Cl)c12)OCO3 came out at 17.3%

Lab note: measured Activity of O=C(Oc1ccc2c(c1)OCO2)c1cc(Cl)ccc1Cl was 13.6%

# molecule Oc1ccc2c(c1)OCO2 ; its Activity = 13%
